Tested on: SK-MEL-2
Assay: NCI tumour cell line growth inhibition, 48 h
Calls of active or inactive are those of the source. No stated cut-off is given here; in the data, active = GI50 up to about 1.1 µM and inactive = higher. Where a SMILES comes first, the peptide text is derived from it. [ ]: non-standard residue; d: D form. The star is where a group is joined. Cbz = O=C(OCc1ccccc1)*; Aib = CC(C)(N)C(=O)O
Possible outcomes: active, inactive

COC(=O)C(NC(=O)C12CCC(C)(C(=O)O1)C2(C)C)c1cc(C(C)(C)C)c(O)c(C(C)(C)C)c1 (stereo unspecified) = inactive
CCOS(=O)(=O)c1ccc(-c2c3nc(c(-c4ccc(S(=O)(=O)OCC)cc4)c4ccc([nH]4)c(-c4ccc(S(=O)(=O)OCC)cc4)c4nc(c(-c5ccc(S(=O)(=O)OCC)cc5)c5ccc2[nH]5)C=C4)C=C3)cc1 = inactive
C=C1C(=O)O[C@H]2[C@H]3O[C@@H](C[C@@H]12)[C@](C)(O)CC[C@@H]1O[C@@]1(C)CCC[C@H]3C = inactive
COc1ccc(CCCCl)c(C2=NCCc3cc(OC)c(OC)cc32)c1 = inactive
O=S(=O)(N1CCCCN(S(=O)(=O)C(F)(F)F)CCCN(S(=O)(=O)C(F)(F)F)CCCN(S(=O)(=O)C(F)(F)F)CCCCN(S(=O)(=O)C(F)(F)F)CCCN(S(=O)(=O)C(F)(F)F)CCC1)C(F)(F)F = inactive
O=S(=O)(O)c1c(Cl)c(Cl)c(O)c2ncccc12 = inactive
O=C1CC(NC(=O)C(F)(F)F)c2c(Br)sc(N3CCNCC3)c21 (stereo unspecified) = inactive
O=C(N/N=C1/C(=O)N(c2ccc(Cl)cc2Cl)C(=O)C(=O)C1c1nc2ccccc2o1)c1ccccc1O (stereo unspecified) = inactive
Nc1nc(Cl)cc(Oc2ccc(Cl)cc2)n1 = inactive
CCCCC[C@@H]1OC(=O)[C@@]2(CC3c4ccccc4C2c2ccccc23)[C@H]1C(=O)OC = inactive
N#CCCN(CCC#N)c1ccc(/C=N\c2nc(-c3ccccc3)cs2)cc1 = inactive
COc1nc(SC)nc2c1cnn2C1OC(C(O)CO)C(OC)C1O (stereo unspecified) = inactive
NCCSCC(N)C(=O)O (stereo unspecified) = inactive
O=C(O)CCC1(C(=O)O)CCC(=O)c2ccccc21 (stereo unspecified) = inactive
COc1ccc(N2C(=O)/C(=C/c3ccc(N(CCC#N)CCC#N)cc3C)N=C2c2cc([N+](=O)[O-])ccc2Cl)cc1 = inactive
COc1ccc(N2CCN(Cc3c(C(C)=O)[n+]([O-])c4ccccc4[n+]3[O-])CC2)cc1 = inactive
CN(C)C(=S)/N=c1\ssc(=S)n1C = inactive
COc1cc2cc(C(=O)N3C[C@H](CCl)c4c3cc(O)c3ccccc43)[nH]c2c(OC)c1OC = active
Oc1cc(F)cc2cccnc12 = inactive
COc1ccc(C(Cc2cc(OC)c(OC)c(OC)c2)C(=O)O)cc1 (stereo unspecified) = inactive
CC(=O)N1CCc2[nH]c3ccccc3c2CC1 = inactive
O=C(CCc1nnc2s/c(=C\c3ccc(Cl)cc3Cl)c(=O)n12)Nc1cc(Cl)c(Cl)cc1Cl = inactive
Cc1ccc2c(c1)[nH]c(=S)n2C=C(C(N)=O)C(N)=O = inactive
CC(=O)C1CC[C@@H]2[C@H](CC[C@]3(C)[C@@H](O)CC[C@@H]23)[C@H]1C(=O)O (stereo partly specified) = inactive
C=C(Br)COc1ccc2c(C)cc(=O)oc2c1 = inactive
CC(=O)Oc1ccccc1C(=O)Nc1ncc([N+](=O)[O-])s1 [NITAZOXANIDE] = inactive
CC(=O)NN(c1ccccc1)C1CCN(c2ccccc2)N1C(C)=O (stereo unspecified) = inactive
COc1cc(O)c(/C=N/N=C(\N)NO)c(OC)c1 = inactive
Cc1ccc(-c2c(C#N)c(-c3ccccc3)n(NS(=O)(=O)c3ccccc3)c(=O)c2C#N)cc1 = inactive
CC(C)(NC(=O)C(C)(C)NC(=O)OCc1ccccc1)C(=O)O (Cbz-[Aib]-[Aib]-OH) = inactive
Cc1c(CC/C(=N\Nc2ccc([N+](=O)[O-])cc2[N+](=O)[O-])c2ccccc2)c2ccccc2n1C = inactive
O=C(O)C1CCCCN1C(=O)Cc1c[nH]c2ccccc12 (stereo unspecified) = inactive
COC(=O)c1cc2c(cc1C(=O)OC)[C@@]1(C)CCCC(C)(C)C1CC2 (stereo partly specified) = inactive
CCC(/C=C/C1OC(=O)C=CC1C)=C\C(C)C/C=C/C(C)=C/C(C)C(=O)C(C)C(O)C(C)C/C(C)=C/C(=O)O (stereo unspecified) = inactive
Cc1nc2ccccc2n1C(=O)c1c(F)c(F)c(F)c(F)c1F = inactive
CCN(CC)CCC1CCCCN1CC(=O)N1c2cc(Cl)ccc2NC(=O)CC1C (stereo unspecified) = inactive
COC(=O)C1=C(c2cc(OC)c(OC)c(OC)c2)O[C@H](c2ccc3c(c2)OCO3)[C@H]1COC(C)=O = inactive
Oc1[nH]c(Nc2cc(Cl)cc(Cl)c2)nc2ncnc1-2 = inactive
CN(C)CCCn1c(-c2cc(C(C)(C)C)c(O)c(C(C)(C)C)c2)cs/c1=N\c1ccccc1 = inactive
CCCCCCCCCCCCCCCCCCNc1ccn(C2OC(CO)C(OP(=O)(O)OCC3CCC(n4ccc(N)nc4=O)O3)C2O)c(=O)n1 (stereo unspecified) = inactive
CC(=O)OCC1OC(n2c3c(c(-c4ccco4)c(C#N)c2=S)CCC3)C(OC(C)=O)C(OC(C)=O)C1OC(C)=O (stereo unspecified) = inactive
